Data credit: PubChem BioAssay AID488966

test: protection from phage-mediated lysis, alamar blue read-out – E. coli UTI89, K1F phage, bacterial capsule biogenesis inhibitors (AID 488966); conditions: 2 h; at 100 µM, active compounds read high unless noted;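 also: capsule biogenesis inhibitors block K1F phage lysis so surviving cells raise fluorescence; higher fluorescence means more inhibition of phage lysis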
The whole screen tested about 340,000 compounds, of which about 55 (0.02%) were called active. Only a sample is shown. Potency and affinity values are given separately.
Recorded endpoint: inhibition

Check out these entries, answers already filled in.
inhibition reading for CC(=O)NN=C1CCC(c2ccccc2)CC1 (stereo unspecified) : 4.73% (inactive)

GET /value?item= COc1ccc(-c2nc(NCCCN(C)C)c3ccccc3n2)cc1 &field=inhibition returns 5.55% (inactive)

# molecule CCC(CC)NC(=O)c1cc(OC)c(OC)cc1[N+](=O)[O-] ; its inhibition = 0.4% (inactive)

Note: attention shifts to another entry.
Summary for this molecule, Cc1cc(C)c2c3c(oc2n1)C(=O)N(c1cccc(Cl)c1)CC(=O)N3 : inhibition is 0.63% (inactive)

* * *

experiment: protection from phage-mediated lysis, alamar blue read-out – E. coli UTI89, K1F phage, bacterial capsule biogenesis inhibitors (AID 488966); details: 2 h; at 100 µM, active compounds read high unless noted
Hit rate of the full screen: of about 340,000 compounds, about 55 (0.02%) were called active. The list is a sample of the results. Potency and affinity values are given separately.
Recorded endpoint: inhibition

These solved cases illustrate the format of a correct answer.
Item: Cc1cccc(CSC(=N)N)c1 | inhibition: 7.29% (inactive)

GET /value?item= COC(=O)/C=C/C(=O)Nc1ccc(O)c(Cl)c1 &field=inhibition returns -2.78% (inactive)

Lab note: Brc1c(OCCOCCn2cncn2)ccc2ccccc12 gave inhibition of -1.02% (inactive)

Lookup result for O=C(CSc1nc2c(cnn2-c2ccccc2)c(=O)[nH]1)NC1CCS(=O)(=O)C1 (configuration not stated) ; measured inhibition: -0.1% (inactive)

Memo: C=CCN1C(=O)CN=C1Nc1cc(C)cc(C)c1 , reported inhibition: -1.02% (inactive)

Continuing:
Entry CCN(CC)c1ccc(NC(=O)c2ccc3c(c2)OCO3)cc1 ; inhibition = 2.01% (inactive)

Lookup result for COc1cccc(C2C3=C(CC(C)(C)CC3=O)Nc3cc4c(cc32)OCO4)c1 (configuration not stated) ; measured inhibition: 2.26% (inactive)

// recorded inhibition for C[C@H](CO)N1C[C@H](C)[C@@H](CN(C)Cc2ccc(C(=O)O)cc2)Oc2c(NS(=O)(=O)c3ccccc3)cccc2C1=O : 0.71% (inactive)

The recorded inhibition for COc1ccc(C(=O)NNC(=O)CCc2nc3ccccc3c(=O)[nH]2)cc1 is -0.85% (inactive)

Looking up c1ccc2c(-c3cncc4ccccc34)cncc2c1 , I see its inhibition listed as 0.59% (inactive)

* * *

test: protection from phage-mediated lysis, alamar blue read-out – E. coli UTI89, K1F phage, bacterial capsule biogenesis inhibitors (AID 488966); conditions: 2 h; at 100 µM, active compounds read high unless noted
About 55 (0.02%) of roughly 340,000 compounds were called active. A selection follows. Entries with a potency or affinity are not part of this list.
Recorded endpoint: inhibition

For orientation, consider the following solved cases.
Entry CCOc1ccc(C(=O)C(CCC(CN(C)C)C(=O)c2ccc(OCC)cc2)CN(C)C)cc1 (stereo unspecified) , inhibition reported as 0.87% (inactive)

Notebook: O=C(Oc1coc(CSc2nnc(NC(=O)C3CC3)s2)cc1=O)c1ccccc1 , inhibition read as 4.85% (inactive)

So, O=C(Nc1ccncc1)Nc1cccc(F)c1 ? Its inhibition was 0.13% (inactive)

New cases:
// sample CCN1C(=O)N[C@@H](c2cccc(C(F)(F)F)c2)[C@@H](C(=O)OC)[C@H]1C , its inhibition was 0.13% (inactive)

Just so you know, measured inhibition for COc1ccc(C(=O)Nc2ccc3c(c2)nc(CCNC(C)=O)n3C)cc1 came out at 5.13% (inactive)

Per the record, COc1ccc2nc(NC(C)=O)sc2c1 has inhibition of 0.03% (inactive)

Quick note, inhibition for Cc1ccc2nc(SCC(=O)Nc3ccccc3N3CCOCC3)c(C#N)cc2c1 landed at -1.09% (inactive)

The reported value for COc1ccc(C(=O)Nc2nc3ccc(OC)cc3s2)cc1 in terms of inhibition is 0.38% (inactive)

Per the records, this compound ( COC(=O)c1sccc1NC(=O)Nc1cccc(Cl)c1Cl ) has inhibition equal to 0.2% (inactive)

// inhibition lookup, compound = Cc1cccc(NC(=O)Nc2ccncc2)c1 , result: 3.48% (inactive)

* * *

assay: protection from phage-mediated lysis, alamar blue read-out – E. coli UTI89, K1F phage, bacterial capsule biogenesis inhibitors (AID 488966); details: 2 h; at 100 µM, active compounds read high unless noted
Screen size: about 340,000 compounds; about 55 (0.02%) were called active. A selection follows. Measured potencies and affinities stand elsewhere.
Below: a set of entries, each annotated with reported inhibition.

Below are worked cases with known answers.
So for Cc1ccc(C(=O)ONc2ccc(N=NC(=O)c3ccccc3O)cc2)cc1 , the logged inhibition turned out to be -1.4% (inactive)

Just so you know, measured inhibition for COc1ccc(NC(=O)C(C)N2c3cccc4cccc(c34)S2(=O)=O)cc1 (stereo not given) came out at 4.61% (inactive)

In plain terms, COc1ccccc1NC(=O)CN1C(=O)C(C)Oc2ccccc21 (stereo not given) has a documented inhibition of -1.62% (inactive)

Please fill in: inhibition reported for O=C(O)CCCC(=O)Nc1cccc(C(=O)Nc2ccccc2C(=O)O)c1 = 1.41% (inactive)

From here, focus on the item given below.
Data point: CCOC(=O)C1CCCN(c2c(NCCCN(C)Cc3ccccc3)c(=O)c2=O)C1 (stereo not given) ; inhibition = 2.34% (inactive)

* * *

Each entry below carries its recorded inhibition.
experiment: protection from phage-mediated lysis, alamar blue read-out – E. coli UTI89, K1F phage, bacterial capsule biogenesis inhibitors (AID 488966); conditions: 2 h; at 100 µM, active compounds read high unless noted;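 also: capsule biogenesis inhibitors block K1F phage lysis so surviving cells raise fluorescence; higher fluorescence means more inhibition of phage lysis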
Screen size: about 340,000 compounds; about 55 (0.02%) were called active. Not all results are given here. Potency and affinity values are given separately.

Reference set (3 entries):
So for CC(C)OCCCNC(=O)c1cc(-c2cccs2)nc2ccccc12 , the logged inhibition turned out to be 0.22% (inactive)

Lab book: inhibition of O=C(COc1ccc2c(-c3ccccc3)cc(=O)oc2c1)NCCCn1ccnc1 noted as -2.78% (inactive)

compound COc1cc(OC)c(OC)cc1CN(C)CC1CCCN(CCc2ccccc2F)C1 (stereo not drawn) , inhibition observed: 0.88% (inactive)

Further cases:
Form field inhibition, entry CCOC(=O)c1ccc2[nH]c3c(c2c1)CCCC3 : 0.13% (inactive)

For reference, reported inhibition for COc1cc(/C=N/N=C(N)N)ccc1OCc1ccc(Cl)cc1 stands at 1.12% (inactive)

Recorded result, Clc1ccc(-c2ccc(/C=N/Nc3nncc(-c4ccccc4)n3)o2)cc1 , inhibition: 0.65% (inactive)

Entry under test: NC(N)=N/N=C/c1ccc(OCc2ccccc2)c(OCc2ccccc2)c1 . Its inhibition was 1.28% (inactive)

* * *

Recorded inhibition, one value per entry.
assay: protection from phage-mediated lysis, alamar blue read-out – E. coli UTI89, K1F phage, bacterial capsule biogenesis inhibitors (AID 488966); details: 2 h; at 100 µM, active compounds read high unless noted;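 also: capsule biogenesis inhibitors block K1F phage lysis so surviving cells raise fluorescence; higher fluorescence means more inhibition of phage lysis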
In all, about 340,000 compounds went through this assay and about 55 (0.02%) were called active. The list is a sample of the results. Results with a measured potency or affinity are listed apart.

A selection of reference data follows.
Noted for CCOc1ccc(NC(=S)N2CCCC2)cc1 : its inhibition reads 0.16% (inactive)

Looking up Cc1cccc(NC(=O)/C(C#N)=C/c2ccc(Cl)cc2)n1 , I see its inhibition listed as 0% (inactive)

inhibition for O=C(Nc1ccc(F)cc1)c1ccc2ncsc2c1 is 0.29% (inactive)

New cases:
Documented inhibition of COC(=O)c1cc(OC)c(OC)cc1NC(=O)CN1CCOCC1 : 1.47% (inactive)

* * *

This section presents compounds with their documented inhibition values.
assay: protection from phage-mediated lysis, alamar blue read-out – E. coli UTI89, K1F phage, bacterial capsule biogenesis inhibitors (AID 488966); details: 2 h; at 100 µM, active compounds read high unless noted;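 also: capsule biogenesis inhibitors block K1F phage lysis so surviving cells raise fluorescence; higher fluorescence means more inhibition of phage lysis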
Hit rate of the full screen: of about 340,000 compounds, about 55 (0.02%) were called active. Not all results are given here. Results with a measured potency or affinity are listed apart.

Please review the entries below; each comes with its answer.
# inhibition (compound: N=c1n(CCN2CCCCC2)c2ccccc2n1CC(O)c1ccc(Cl)c(Cl)c1 (configuration not stated) ) is -4.43% (inactive)

Recorded inhibition (compound COc1cc(C2C(C#N)=C(N)Oc3n[nH]c(-c4ccncc4)c32)cc(OC)c1OC (configuration not stated) ): 1.19% (inactive)

According to the records, this compound COc1ccc(C(=O)N2CCN(C)C(C)C2)cc1OC1CCN(C(C)=O)CC1 (configuration not stated) displays inhibition of -0.02% (inactive)

Input COc1ccc(CNC(=O)CN2C(=O)CSc3ccc(S(=O)(=O)N4CCCCC4)cc32)cc1 . Output inhibition: 0.13% (inactive)

***
Looking up CC(CCc1ccccc1)NC(=O)CN1CCOc2ccccc21 (configuration not stated) , I found its inhibition recorded as 0.85% (inactive)

// sample COc1ccc(C(CNC(=O)c2cncc(Br)c2)N(C)C)cc1 (configuration not stated) , its inhibition was -0.11% (inactive)
